target.system: human P2X3 receptor (Homo sapiens (Human), UniProt P56373)
Sequence (P56373 whole entry): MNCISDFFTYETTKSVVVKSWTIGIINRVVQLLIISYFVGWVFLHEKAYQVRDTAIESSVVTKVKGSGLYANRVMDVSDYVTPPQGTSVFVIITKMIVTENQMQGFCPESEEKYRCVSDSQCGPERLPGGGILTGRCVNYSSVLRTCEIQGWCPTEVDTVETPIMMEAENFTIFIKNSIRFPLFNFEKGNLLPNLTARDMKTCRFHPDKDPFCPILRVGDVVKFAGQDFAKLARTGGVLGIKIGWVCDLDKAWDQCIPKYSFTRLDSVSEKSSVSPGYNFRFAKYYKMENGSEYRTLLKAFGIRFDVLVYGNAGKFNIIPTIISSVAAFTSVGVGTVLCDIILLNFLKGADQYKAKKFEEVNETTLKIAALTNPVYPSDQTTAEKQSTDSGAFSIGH
experimental.details: Evaluation of human P2X3 receptor inhibitory activity (Fluo-3 calcium fluorescence, FDSS 3000, ATP stimulation)
Type: cell-based
setup.conditions: C6BU-1 cells stably expressing human P2X3 receptor, Fluo-3 fluorescence, FDSS 3000
property: IC50 (nM)
Record the value in nM, omitting the unit from your answer.

Study these solved cases before continuing.
[
  {
    "smiles.code": "CCCc1cc2cc(/N=c3\\[nH]c(=O)n([C@@H](C)[C@@H](C)C(=O)OC)c(=O)n3Cc3ccc(Cl)cc3)ccc2o1",
    "target.system": "human P2X3 receptor (Homo sapiens (Human), UniProt P56373)",
    "IC50 [nM]": 52
  },
  {
    "smiles.code": "Cc1ccc(Cn2c(=O)n(C[C@H](C)C(=O)O)c(=O)[nH]/c2=N\\c2cccc(C3=CCCCC3)c2)cc1",
    "target.system": "human P2X3 receptor (Homo sapiens (Human), UniProt P56373)",
    "IC50 [nM]": 872
  },
  {
    "smiles.code": "CCc1nc2ccc(/N=c3\\[nH]c(=O)n(CCC(N)=O)c(=O)n3Cc3ccc(Cl)cc3)cc2s1",
    "target.system": "human P2X3 receptor (Homo sapiens (Human), UniProt P56373)",
    "IC50 [nM]": 6
  },
  {
    "smiles.code": "COC(=O)[C@H](C)[C@H](C)n1c(=O)[nH]/c(=N\\c2ccc3oc4ccccc4c3c2)n(Cc2ccc(Cl)cc2)c1=O",
    "target.system": "human P2X3 receptor (Homo sapiens (Human), UniProt P56373)",
    "IC50 [nM]": 913
  },
  {
    "smiles.code": "O=c1[nH]/c(=N\\c2ccc(Oc3ccnc(O)c3)cc2)n(Cc2ccc(Cl)cc2)c(=O)n1C[C@H](O)CO",
    "target.system": "human P2X3 receptor (Homo sapiens (Human), UniProt P56373)",
    "IC50 [nM]": 5
  }
]

Notebook: Cc1ccc(Cn2c(=O)n(CC3(C(=O)O)CC3)c(=O)[nH]/c2=N\c2ccc(OC(C)C)c(C)c2)cc1 , IC50 read as 38

The reported value for CCCOc1ccc(/N=c2\[nH]c(=O)n([C@@H](C)[C@@H](C)C(=O)O)c(=O)n2Cc2ccc(C)cc2)cc1 in terms of IC50 is 45

// field: IC50; key: CCc1nc2ccc(/N=c3\[nH]c(=O)n(CC(C)(C)C(=O)O)c(=O)n3Cc3ccc(Cl)cc3)cc2s1 ; value = 6

Reported IC50 of CCn1c(=O)[nH]/c(=N\c2ccc(Oc3ccnc(CO)c3)cc2)n(Cc2ccc(Cl)cc2)c1=O : 4

====

target.system: human P2X3 receptor (Homo sapiens (Human), UniProt P56373)
experimental.details: Evaluation of human P2X3 receptor inhibitory activity (Fluo-3 calcium fluorescence, FDSS 3000, ATP stimulation);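 also: stimulus was 50 nM ATP with fluorescence followed for 3 min, and the response per well was peak post-ATP fluorescence divided by the reading at measurement start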
Type: cell-based
setup.conditions: C6BU-1 cells stably expressing human P2X3 receptor
property: pIC50
Remember, pIC50 is on a log scale: it is -log10 of the molar concentration.

Sample records with pIC50:
[
  {
    "molecule": "Cc1[nH]c2ccc(/N=c3\\[nH]c(=O)n(CC(CO)CO)c(=O)n3Cc3ccc(Cl)cc3)cc2c1C [Compound I-1935]",
    "target.system": "human P2X3 receptor (Homo sapiens (Human), UniProt P56373)",
    "property": "pIC50",
    "test.value": 8.05
  },
  {
    "molecule": "CNC(=NC#N)NCCCn1c(=O)[nH]/c(=N\\c2ccc(OC(C)C)c(F)c2)n(Cc2ccc(Cl)cc2)c1=O [Compound I-0615]",
    "target.system": "human P2X3 receptor (Homo sapiens (Human), UniProt P56373)",
    "property": "pIC50",
    "test.value": 8.30
  },
  {
    "molecule": "CC(C)Oc1ccc(/N=c2\\[nH]c(=O)n(CC(=O)NO)c(=O)n2Cc2ccc(Cl)cc2)cc1F [Compound I-0636]",
    "target.system": "human P2X3 receptor (Homo sapiens (Human), UniProt P56373)",
    "property": "pIC50",
    "test.value": 8.00
  },
  {
    "molecule": "COC(=O)[C@H](C)[C@H](C)n1c(=O)[nH]/c(=N\\c2ccc(CC(C)C)c(OC)c2)n(Cc2ccc(C)cc2)c1=O [Compound I-1364]",
    "target.system": "human P2X3 receptor (Homo sapiens (Human), UniProt P56373)",
    "property": "pIC50",
    "test.value": 7.37
  },
  {
    "molecule": "O=c1[nH]/c(=N\\c2ccc(OC3CCC3)cc2)n(Cc2ccc(Cl)cc2)c(=O)n1CCO [Compound I-2010]",
    "target.system": "human P2X3 receptor (Homo sapiens (Human), UniProt P56373)",
    "property": "pIC50",
    "test.value": 7.27
  }
]

Field pIC50 (entry COC(=O)c1cccc(Oc2ccc(/N=c3\[nH]c(=O)n(C)c(=O)n3Cc3ccc(C)cc3)cc2)c1 [Compound I-2031] ) reads 7.28

Per the record, COC(=O)[C@@H](C)Cn1c(=O)[nH]/c(=N\c2ccc(CC(C)C)c(F)c2)n(Cc2ccc(C)cc2)c1=O [Compound I-1252] has pIC50 of 7.64

Input CCOC(=O)C1(COc2ccc(/N=c3\[nH]c(=O)n(CC)c(=O)n3Cc3ccc(Cl)cc3)cc2)CC1 [Compound I-2014] . Output pIC50: 6.44

Per the record, Cc1ccc(Cn2c(=O)n(C[C@H](C)C(=O)O)c(=O)[nH]/c2=N\c2ccc(Oc3cc(C)nc(C)c3)cc2)cc1 [Compound I-1260] has pIC50 of 7.51

Short answer for C[C@H](C(=O)O)[C@@H](C)n1c(=O)[nH]/c(=N\c2cccc(C(F)(F)F)c2)n(Cc2ccc(Cl)cc2)c1=O [Compound I-1345] : pIC50 was 7.16

Value of measured pIC50 for the entry C[C@@H](Cn1c(=O)[nH]/c(=N\c2ccc3c(c2)CCC3)n(Cc2ccc(Cl)cc2)c1=O)C(=O)O [Compound I-0772] : 6.32

Documented pIC50 of O=c1[nH]/c(=N\c2ccc(Oc3ccnc(CO)c3)cc2)n(Cc2ccc(Cl)cc2)c(=O)n1CCO [Compound I-1986] : 7.80

Please fill in: pIC50 reported for Cc1cc(/N=c2\[nH]c(=O)n(Cc3cccn(CC(=O)O)c3=O)c(=O)n2Cc2ccc(Cl)cc2)ccc1OC(C)C [Compound I-0760] = 7.43

Please fill in: pIC50 reported for CCOC(=O)CC(C)(C)n1c(=O)[nH]/c(=N\c2ccc(OC(C)C)c(C)c2)n(Cc2ccc(Cl)cc2)c1=O [Compound I-0805] = 7.54

Field pIC50 (entry Cc1nc2ccc(/N=c3\[nH]c(=O)n(C[C@H](C)C(=O)O)c(=O)n3Cc3ccc(Cl)cc3)cc2s1 [Compound I-1349] ) reads 7.82
